# Tested System: Angiotensin-converting enzyme (Rattus norvegicus) (UniProt P47820)
# Sequence (P47820 whole entry): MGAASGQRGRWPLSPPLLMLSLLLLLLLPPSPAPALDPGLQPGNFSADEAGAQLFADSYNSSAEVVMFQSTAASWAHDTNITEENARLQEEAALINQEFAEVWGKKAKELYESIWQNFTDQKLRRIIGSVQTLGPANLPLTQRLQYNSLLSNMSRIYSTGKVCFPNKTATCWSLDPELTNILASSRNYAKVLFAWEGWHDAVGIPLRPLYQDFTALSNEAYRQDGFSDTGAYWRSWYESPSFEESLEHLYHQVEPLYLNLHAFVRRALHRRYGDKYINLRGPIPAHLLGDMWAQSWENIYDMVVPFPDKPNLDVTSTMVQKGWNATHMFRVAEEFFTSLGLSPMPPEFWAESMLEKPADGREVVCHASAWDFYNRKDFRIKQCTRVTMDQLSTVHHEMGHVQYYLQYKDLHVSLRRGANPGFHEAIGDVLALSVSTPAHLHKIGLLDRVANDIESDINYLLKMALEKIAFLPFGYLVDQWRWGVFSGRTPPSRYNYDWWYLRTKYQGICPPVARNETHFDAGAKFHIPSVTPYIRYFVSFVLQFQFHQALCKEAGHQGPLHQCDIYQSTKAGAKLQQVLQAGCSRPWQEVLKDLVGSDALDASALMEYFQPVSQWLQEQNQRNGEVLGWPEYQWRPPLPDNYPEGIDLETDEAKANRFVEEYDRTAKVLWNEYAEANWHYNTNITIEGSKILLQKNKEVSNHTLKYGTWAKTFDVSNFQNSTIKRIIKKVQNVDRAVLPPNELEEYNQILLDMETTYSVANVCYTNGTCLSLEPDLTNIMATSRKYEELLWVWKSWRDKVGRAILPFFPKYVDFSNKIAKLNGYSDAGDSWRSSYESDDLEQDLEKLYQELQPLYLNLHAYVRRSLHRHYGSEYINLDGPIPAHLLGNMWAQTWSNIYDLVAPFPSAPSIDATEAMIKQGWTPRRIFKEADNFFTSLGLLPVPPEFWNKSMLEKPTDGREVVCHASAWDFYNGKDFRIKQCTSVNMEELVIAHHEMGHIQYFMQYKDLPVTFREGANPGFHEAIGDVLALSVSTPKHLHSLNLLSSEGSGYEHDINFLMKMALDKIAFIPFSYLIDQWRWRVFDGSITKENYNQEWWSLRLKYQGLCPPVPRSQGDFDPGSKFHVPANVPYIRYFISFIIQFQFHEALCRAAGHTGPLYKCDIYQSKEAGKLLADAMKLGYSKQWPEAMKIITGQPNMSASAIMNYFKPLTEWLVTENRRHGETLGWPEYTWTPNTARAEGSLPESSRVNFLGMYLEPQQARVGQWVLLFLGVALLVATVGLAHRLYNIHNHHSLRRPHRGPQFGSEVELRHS
# Test Summary: Inhibition of Angiotensin I converting enzyme(ACE) at the dose of 100 mg/kg (ip) in rat
# Type: organism-based
# Parameters: dose 100 mg/kg
Measured Property: ACE inhibition (%)

NS(=O)(=O)c1cc2c(cc1Cl)NC(CN(CC(=O)O)C(=O)[C@H](CCCCNC(=O)OCc1ccccc1)N[C@@H](CCc1ccccc1)C(=O)O)NS2(=O)=O (stereo partly drawn)
100
CCOC(=O)c1cc(S(N)(=O)=O)c(NCCCC[C@H](C(=O)O)N(Cc2ccccc2)C(=O)[C@H](C)N[C@@H](CCc2ccccc2)C(=O)OCC)cc1Cl.Cl
80
C[C@H](N[C@@H](CCc1ccccc1)C(=O)O)C(=O)N(CC(=O)O)Cc1cc(C(C)(C)C)cc(I)c1O.Cl
100
